tested on: C6 astrocyte cell line; assay: C6 oxidative stress assay (serum withdrawal, DCF); details: Rattus norvegicus, Astrocyte, read-out: C6 oxidative stress assay IC50
Counter-ions that a name gives are not always drawn.
valueKind: IC50 (µM)
State just the number; it will be interpreted in µM.

compound	IC50 (µM)
Cc1[nH]c2ccccc2c1CN(C)C [2-Methyl gramine]	32

Simply: ClC1=C(Cl)C2(Cl)C3C(Cl)C(Cl)CC3C1(Cl)C2(Cl)Cl (stereo not drawn) [Chlordane] , C6 astrocyte cell line, IC50 = 3.57

Simply: CC(C)N(C(=O)CCl)c1ccccc1 [Propachlor] , C6 astrocyte cell line, IC50 = 0.645

Simply: Cc1cc(O)c(C)c(O)c1C(=O)O [3-Methylorsellinic acid] , C6 astrocyte cell line, IC50 = 3.1

Simply: OC[C@H]1O[C@@H](n2cnc3c(NCc4ccco4)ncnc32)[C@H](O)[C@@H]1O [Kinetin riboside] , C6 astrocyte cell line, IC50 = 3.84

Simply: CN1CCc2cccc3c2[C@H]1Cc1ccc(O)c(O)c1-3 [Apomorphine hydrochloride, reference compound] , C6 astrocyte cell line, IC50 = 1.69
